Data credit: FireProtDB (doi:10.1016/j.bpc.2008.09.020)

B1: Cytochrome c-551, P00099 (parent)
chain: MKPYALLSLLATGTLLAQGAWAEDPEVLFKNKGCVACHAIDTKMVGPAYKDVAAKFAGQAGAEAELAQRIKNGSQGVWGPIPMPPNAVSDDEAQTLAKWVLSQK

# Variants of: B1
# condition set: Pseudomonas aeruginosa (strain ATCC 15692 / DSM 22644 / CIP 104116 / JCM 14847 / LMG 12228 / 1C / PRS 101 / PAO1); pH 3.6; 25 °C; GdnHCl; CD; Sodium acetate 20 mM; structure 451C; whole UniProt chain shown
Labels assigned by ddG of mutation (higher = less stable) range: low (below -2 kcal/mol), middle (-2 kcal/mol to below -0.7 kcal/mol), high (-0.7 kcal/mol or more)

| ordered residues | answer label |
| --- | --- |
| MKPYALLSLLATGTLLAQGAWAEDPEVLAKNKGCMACHAIDTKMVGPAYKDVAAKFAGQAGAEAELAQRIKNGSQGVWGPIPMPPNAVSDDEAQTLAKWILSQK [F29A V35M V100I] | middle |
| MKPYALLSLLATGTLLAQGAWAEDPEVLAKNKGCMACHAIDTKMVGPAYKDVAAKYAGQAGAEAYLAQRIKNGSQGVWGPIPMPPNAVSDDEAQTLAKWILSQK [F29A V35M F56Y E65Y V100I] | low |
| MKPYALLSLLATGTLLAQGAWAEDPEVLFKNKGCVACHAIDTKMVGPAYKDVAAKYAGQAGAEAYLAQRIKNGSQGVWGPIPMPPNAVSDDEAQTLAKWILSQK [F56Y E65Y V100I] | middle |
| MKPYALLSLLATGTLLAQGAWAEDPEVLAKNKGCMACHAIDTKMVGPAYKDVAAKFAGQAGAEAELAQRIKNGSQGVWGPIPMPPNAVSDDEAQTLAKWVLSQK [F29A V35M] | middle |
| MKPYALLSLLATGTLLAQGAWAEDPEVLAKNKGCMACHAIDTKMVGPAYKDVAAKYAGQAGAEAYLAQRIKNGSQGVWGPIPMPPNAVSDDEAQTLAKWVLSQK [F29A V35M F56Y E65Y] | low |

Task item: Field: class (ddG of mutation (higher = less stable)) — entry: MKPYALLSLLATGTLLAQGAWAEDPEVLFKNKGCVACHAIDTKMVGPAYKDVAAKFAGQAGAEAYLAQRIKNGSQGVWGPIPMPPNAVSDDEAQTLAKWVLSQK [E65Y]
Reply: high

Task item: Field: class (ddG of mutation (higher = less stable)) — entry: MKPYALLSLLATGTLLAQGAWAEDPEVLFKNKGCVACHAIDTKMVGPAYKDVAAKYAGQAGAEAELAQRIKNGSQGVWGPIPMPPNAVSDDEAQTLAKWVLSQK [F56Y]
Reply: high

Task item: Field: class (ddG of mutation (higher = less stable)) — entry: MKPYALLSLLATGTLLAQGAWAEDPEVLFKNKGCVACHAIDTKMVGPAYKDVAAKFAGQAGAEAELAQRIKNGSQGVWGPIPMPPNAVSDDEAQTLAKWILSQK [V100I]
Reply: middle
